- protocol: Cell viability assay (CellTiter-Glo), Vero-TMPRSS2
- Assay type: cell-based, African green monkey
- protocolConditions: African green monkey, Vero-TMPRSS2 cells, 48 h incubation
measuredEndpoint: CC50 at 48 h (µM)
Supply the numeric figure in µM, leaving out any unit text.

Incoming: Quick one: CC50 at 48 h of CCCCCCCCCCCCCCCCCCOC[C@H](COP(=O)(O)OC[C@H]1O[C@@](C#N)(c2ccc3c(N)ncnn23)[C@H](O)[C@@H]1O)OCc1ccccc1 ?
Outgoing: 82.6

* * *

- protocol: Single dose PO or IV plasma pharmacokinetics and tolerability in BALB/c mice
- protocolConditions: male, BALB/c, mouse, in vivo, iv, 7 mg/kg
measuredEndpoint: Cmax (µM)
Supply the numeric figure in µM, leaving out any unit text.

Incoming: Quick one: Cmax of CCCCCCCCCCCCCCCCCCOC[C@H](COP(=O)(O)OC[C@H]1O[C@@](C#N)(c2ccc3c(N)ncnn23)[C@H](O)[C@@H]1O)OCc1ccccc1 [Compound V2043] ?
Outgoing: 96.6
